# Ki per record follows
Test system: KEAP1 Kelch domain, MBP-tagged (human) (UniProt Q14145)
Sequence (Q14145 whole entry, the tested form may be a part): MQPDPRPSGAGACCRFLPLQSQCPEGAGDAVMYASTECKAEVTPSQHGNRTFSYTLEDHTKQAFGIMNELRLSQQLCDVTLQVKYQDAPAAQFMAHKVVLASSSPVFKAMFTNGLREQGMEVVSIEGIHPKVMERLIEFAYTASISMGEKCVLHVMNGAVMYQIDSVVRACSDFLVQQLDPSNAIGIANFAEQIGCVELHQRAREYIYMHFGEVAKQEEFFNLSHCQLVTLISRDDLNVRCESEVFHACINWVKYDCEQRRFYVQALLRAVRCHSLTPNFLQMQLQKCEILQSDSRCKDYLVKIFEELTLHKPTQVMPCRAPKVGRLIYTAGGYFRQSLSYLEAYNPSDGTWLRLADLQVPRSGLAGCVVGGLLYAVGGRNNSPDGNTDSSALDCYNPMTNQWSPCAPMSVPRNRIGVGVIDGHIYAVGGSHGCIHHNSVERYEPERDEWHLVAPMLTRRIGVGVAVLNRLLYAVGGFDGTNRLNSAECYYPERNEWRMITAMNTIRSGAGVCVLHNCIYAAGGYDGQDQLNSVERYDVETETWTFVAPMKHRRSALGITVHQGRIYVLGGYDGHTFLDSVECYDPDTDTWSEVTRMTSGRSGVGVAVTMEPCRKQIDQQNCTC
Protocol: fluorescence polarisation; competition: unlabelled peptide in serial dilution against FITC-labelled probe peptide and protein (master mix with protein at four times the KD), 50 mM KPO4 pH 7.5; sigmoidal dose-response fit, KI

- Binder: "PPLPPPPLPPAPSLPY [ATF5 128-143 peptide]"
  Ki (µM): 1470
- Binder: "YMQHLQEQQQQQMHLQ [TREF1 332-347 peptide]"
  Ki (µM): 162
